tested on: PvdQ acylase [Pseudomonas aeruginosa LESB58]; experiment: P. aeruginosa PvdQ acylase inhibitors, primary screen, biochemical, fluorescence, plate reader and imaging, single point (AID 488965); conditions: purified PvdQ acylase, at 10 µM, stronger effect = higher value;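 note: 0% = vehicle neutral wells and 100% = reference inhibitor wells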
Screen size: about 340,000 compounds; about 210 (0.062%) were called active. The full list was thinned out, with actives kept by preference.
# reported inhibition; entries follow

{"compound": "CCN(CC)c1ccc(NC(=O)c2ccc(Cl)nc2)cc1", "unit.spec": "%", "inhibition": -15.1}
{"compound": "Cc1ccc(C(c2sc3nc(C)nn3c2O)N2CCN(c3ccc(F)cc3)CC2)cc1 (stereo not given)", "unit.spec": "%", "inhibition": -4.54}
{"compound": "COc1ccc(N2C(=O)CC(Sc3n[nH]c(-c4ccc(C)cc4)n3)C2=O)cc1 (stereo not given)", "unit.spec": "%", "inhibition": -16}
{"compound": "COc1ccc(-c2ocnc2C(=O)Nc2ccc3c(c2)CCC3)cc1", "unit.spec": "%", "inhibition": 0.782}
{"compound": "CCc1ccc(NC(=O)CN2CCC(C(=O)c3ccc(OC)cc3)CC2)cc1", "unit.spec": "%", "inhibition": -11.8}
{"compound": "O=C(NCC(=O)N(Cc1cccs1)C(C(=O)NC1CCCCC1)c1ccco1)c1cccs1 (stereo not given)", "unit.spec": "%", "inhibition": -5.29}
{"compound": "Cc1cc(C)c2c(NC(=O)C3CC3)nn(C)c2n1", "unit.spec": "%", "inhibition": 3.4}
{"compound": "O=C(N/N=C/c1ccc(Cl)cc1)c1nc2ccc([N+](=O)[O-])cc2c(=O)[nH]1", "unit.spec": "%", "inhibition": -8.55}
{"compound": "Cc1ccc(S(=O)(=O)NCCSC(C)(C)C)cc1", "unit.spec": "%", "inhibition": 6.35}
{"compound": "CC(C)CC(COCc1ccc(Cl)cc1)N1CCN(C(=O)c2ccc(C(F)(F)F)cc2)CCC1=O (stereo not given)", "unit.spec": "%", "inhibition": -5.2}
